Assay Target: Indoleamine 2,3-dioxygenase 1 (Homo sapiens)
Sequence (P14902 whole entry): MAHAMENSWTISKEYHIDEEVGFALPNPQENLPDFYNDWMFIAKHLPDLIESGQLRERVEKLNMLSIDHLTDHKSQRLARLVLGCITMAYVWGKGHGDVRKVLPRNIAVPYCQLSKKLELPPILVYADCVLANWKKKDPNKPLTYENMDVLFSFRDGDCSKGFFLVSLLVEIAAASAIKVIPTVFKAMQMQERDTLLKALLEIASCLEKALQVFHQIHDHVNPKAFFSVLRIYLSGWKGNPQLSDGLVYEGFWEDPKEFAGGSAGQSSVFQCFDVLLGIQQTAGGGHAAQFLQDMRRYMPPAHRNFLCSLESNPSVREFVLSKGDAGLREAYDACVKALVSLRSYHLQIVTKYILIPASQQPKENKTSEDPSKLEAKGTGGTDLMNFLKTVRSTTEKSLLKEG
Test Name: Inhibition of IDO1 in human HeLa cells stimulated with IFNgamma using L-tryptophan as substrate incubated for 48 hrs by fluorescence based assay
Assay type: cell-based
Would you kindly list pIC50 for each of these compounds?
Give bare numbers, as −log10 of the molar value.

{"columns": ["Compound", "pIC50"],
 "data": [
  ["Nc1nonc1/C(=N/O)NC1Cc2cc(F)c(F)cc21 (configuration not stated)", 7.12]
]}

Here is another compound to look at.
Observed pIC50 on Indoleamine 2,3-dioxygenase 1 (Homo sapiens), entry Nc1nonc1/C(=N/O)NC1Cc2cc(F)ccc21 (configuration not stated) , equals 6.82
